Catalogue of kon values
ASSAYED SYSTEM: T1, C-terminally FLAG-tagged human Gas6 recombinant protein (hGas6-F) (human, UniProt Q14393 31-678, gamma-carboxylated glutamic acid residues in the Gla domain (producer cells co-express rat VKOR and human GGCX); positions not given)
T1 construct: also called human Gas6-F; human Gas6 protein
T1 sequence: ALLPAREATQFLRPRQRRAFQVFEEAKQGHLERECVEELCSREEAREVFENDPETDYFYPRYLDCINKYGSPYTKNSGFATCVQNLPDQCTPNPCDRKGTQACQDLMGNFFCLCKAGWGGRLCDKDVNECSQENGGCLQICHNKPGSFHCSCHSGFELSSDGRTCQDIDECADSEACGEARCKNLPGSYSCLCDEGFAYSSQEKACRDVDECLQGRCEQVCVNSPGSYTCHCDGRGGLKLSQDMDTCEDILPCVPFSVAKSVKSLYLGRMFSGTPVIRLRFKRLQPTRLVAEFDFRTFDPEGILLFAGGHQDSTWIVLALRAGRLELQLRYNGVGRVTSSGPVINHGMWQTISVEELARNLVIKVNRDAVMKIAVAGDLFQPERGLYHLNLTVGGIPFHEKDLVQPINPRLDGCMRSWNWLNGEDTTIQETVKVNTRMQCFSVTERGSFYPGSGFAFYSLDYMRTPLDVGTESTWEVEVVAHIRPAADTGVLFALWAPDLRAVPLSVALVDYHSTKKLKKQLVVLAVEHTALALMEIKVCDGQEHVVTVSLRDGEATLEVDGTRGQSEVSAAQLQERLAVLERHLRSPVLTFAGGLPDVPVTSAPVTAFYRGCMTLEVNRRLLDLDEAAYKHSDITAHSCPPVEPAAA
TEST DETAILS: SPR Biacore T100, captured antibody, Gas6 analyte, first test

hzKM5321 LV6HV7 antibody (antibody, V domains shown, Humanized; variant human IgG4 constant region (EU S228P, L235E, R409K), human kappa; also called B-18; LV6HV7) VH: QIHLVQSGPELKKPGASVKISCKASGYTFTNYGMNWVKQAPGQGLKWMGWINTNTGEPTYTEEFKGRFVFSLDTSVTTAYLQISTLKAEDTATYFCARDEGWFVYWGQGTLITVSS VL: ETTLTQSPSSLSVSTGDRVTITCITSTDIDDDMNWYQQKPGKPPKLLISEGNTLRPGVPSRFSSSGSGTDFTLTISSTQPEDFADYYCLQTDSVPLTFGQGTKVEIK :: > 107000 M⁻¹ s⁻¹

Task: # query: kon of entry hzKM5320 LV5HV2 antibody (antibody, V domains shown, Humanized; variant human IgG4 constant region (EU S228P, L235E, R409K), human kappa; also called kzKM5320 LV5HV2; A-20) VH: QVQLVQSGSELKKPGASVKVSCKASGYTFTNYGMNWVRQAPGQGLEWMGWINTETGEPTYSDDFKGRFVFSLDTSVSTAYLQISSLKAEDTATYFCAREDGYYGTLDYWGQGTTVTVSS VL: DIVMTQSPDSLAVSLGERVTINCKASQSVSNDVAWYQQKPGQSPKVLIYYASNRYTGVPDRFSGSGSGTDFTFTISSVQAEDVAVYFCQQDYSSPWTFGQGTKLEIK
Output: > 74300 M⁻¹ s⁻¹

The measured values listed here are drawn from patent US20180339041A1.
